Assay: Inhibition of Saccharomyces cerevisiae alpha-glucosidase using p-nitophenyl alpha […]D-glucoside incubated for 45 mins
Exercise: for every item that follows, state its recorded pIC50.
Numbers only, as −log10 of the molar value.

Sample records with pIC50:
C/C(=C\CC/C(C)=C/CC[C@@H]1[C@@]2(C)CCC(=O)C(C)(C)[C@H]2CC[C@@]1(C)O)CC/C=C(\C)C(=O)OCc1cn(-c2ccc(F)c(Cl)c2)nn1 :: 5.00
C/C(=C\CC/C(C)=C/CC[C@@H]1[C@@]2(C)CCC(=O)C(C)(C)[C@H]2CC[C@@]1(C)O)CC/C=C(\C)C(=O)OCc1cn(-c2cccc(F)c2)nn1 :: 5.39
C/C(=C\CC/C(C)=C/CC[C@@H]1[C@@]2(C)CCC(=O)C(C)(C)[C@H]2CC[C@@]1(C)O)CC/C=C(\C)C(=O)OCc1cn(-c2ccccc2C(F)(F)F)nn1 :: 4.84
COc1cccc(-n2cc(COC(=O)/C(C)=C/CC/C(C)=C/CC/C(C)=C/CC[C@@H]3[C@@]4(C)CCC(=O)C(C)(C)[C@H]4CC[C@@]3(C)O)nn2)c1 :: 4.75
C/C(=C\CC/C(C)=C/CC[C@@H]1[C@@]2(C)CCC(=O)C(C)(C)[C@H]2CC[C@@]1(C)O)CC/C=C(\C)C(=O)OCc1cn(-c2cccc(C)c2)nn1 :: 4.87

# context switch: different compound, same pIC50
Q: What value of pIC50 has been recorded for this entry: `C/C(=C\CC/C(C)=C/CC[C@@H]1[C@@]2(C)CCC(=O)C(C)(C)[C@H]2CC[C@@]1(C)O)CC/C=C(\C)C(=O)O`
Result: 3.78

* * *

Kindly supply the reported IC50 values for the records listed here.
Test: Inhibition of Saccharomyces cerevisiae alpha-glucosidase using p-nitophenyl alpha […]D-glucoside incubated for 45 mins
Answers are plain numbers, in µM.

Here is how some compounds turned out for IC50.
C/C(=C\CC/C(C)=C/CC[C@@H]1[C@@]2(C)CCC(=O)C(C)(C)[C@H]2CC[C@@]1(C)O)CC/C=C(\C)C(=O)OCc1cn(-c2cccc(C(F)(F)F)c2)nn1 :: 13.4
C/C(=C\CC/C(C)=C/CC[C@@H]1[C@@]2(C)CCC(=O)C(C)(C)[C@H]2CC[C@@]1(C)O)CC/C=C(\C)C(=O)OCc1cn(-c2ccccc2)nn1 :: 43.5
C/C(=C\CC/C(C)=C/CC[C@@H]1[C@@]2(C)CCC(=O)C(C)(C)[C@H]2CC[C@@]1(C)O)CC/C=C(\C)C(=O)OCc1cn(-c2ccccc2Cl)nn1 :: 106

Now take the following compound into account.
Q: Request the reported IC50 associated with `C/C(=C\CC/C(C)=C/CC[C@@H]1[C@@]2(C)CCC(=O)C(C)(C)[C@H]2CC[C@@]1(C)O)CC/C=C(\C)C(=O)OCc1cn(-c2cccc([N+](=O)[O-])c2)nn1`
Result: 2.77

* * *

Would you kindly list pIC50 for each of these molecules?
Test: Inhibition of LPS-induced IL-1beta expression in human U-937 cells preincubated for 1 hr followed by LPS addition and measured after 24 hrs by ELISA
Format: functional, cell-based
Numbers only, as −log10 of the molar value.

Worked cases, answers included:
C/C(=C\CC/C(C)=C/CC[C@@H]1[C@@]2(C)CCC(=O)C(C)(C)[C@H]2CC[C@@]1(C)O)CC/C=C(\C)C(=O)OCc1cn(-c2ccccc2[N+](=O)[O-])nn1 :: 5.05
C/C(=C\CC/C(C)=C/CC[C@@H]1[C@@]2(C)CCC(=O)C(C)(C)[C@H]2CC[C@@]1(C)O)CC/C=C(\C)C(=O)OCc1cn(C[C@@H]2O[C@H](n3ccc(=O)[nH]c3=O)C[C@H]2O)nn1 :: 5.03
C/C(=C\CC/C(C)=C/CC[C@@H]1[C@@]2(C)CCC(=O)C(C)(C)[C@H]2CC[C@@]1(C)O)CC/C=C(\C)C(=O)OCc1cn(-c2ccccc2)nn1 :: 5.01
C/C(=C\CC/C(C)=C/CC[C@@H]1[C@@]2(C)CCC(=O)C(C)(C)[C@H]2CC[C@@]1(C)O)CC/C=C(\C)C(=O)OCc1cn([C@@H]2C[C@@H](n3cc(C)c(=O)[nH]c3=O)O[C@H]2CO)nn1 :: 5.04
C/C(=C\CC/C(C)=C/CC[C@@H]1[C@@]2(C)CCC(=O)C(C)(C)[C@H]2CC[C@@]1(C)O)CC/C=C(\C)C(=O)OCc1cn(-c2ccccc2Cl)nn1 :: 5.05

Now look at this entry.
Q: # get_value(readout='pIC50', item= `COc1ccccc1-n1cc(COC(=O)/C(C)=C/CC/C(C)=C/CC/C(C)=C/CC[C@@H]2[C@@]3(C)CCC(=O)C(C)(C)[C@H]3CC[C@@]2(C)O)nn1` )
Result: 5.04
